Reference source for all entries: patent EP4759807A1

Biological target: IRAK4 (Homo sapiens, UniProt Q9NWZ3)
Sequence (Q9NWZ3 1-460): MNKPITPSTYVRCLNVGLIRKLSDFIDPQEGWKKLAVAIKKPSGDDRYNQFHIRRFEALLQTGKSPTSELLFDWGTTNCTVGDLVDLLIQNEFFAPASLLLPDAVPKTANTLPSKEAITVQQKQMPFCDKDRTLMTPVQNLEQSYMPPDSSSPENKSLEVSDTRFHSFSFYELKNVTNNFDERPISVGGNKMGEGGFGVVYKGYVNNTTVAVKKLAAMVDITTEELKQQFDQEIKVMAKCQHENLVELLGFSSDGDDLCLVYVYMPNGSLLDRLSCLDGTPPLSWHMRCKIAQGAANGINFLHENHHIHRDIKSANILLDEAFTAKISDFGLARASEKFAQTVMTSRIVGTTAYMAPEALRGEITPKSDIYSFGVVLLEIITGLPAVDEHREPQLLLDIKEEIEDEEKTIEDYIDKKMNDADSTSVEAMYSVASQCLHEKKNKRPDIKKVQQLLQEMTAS
Experiment: WB detection of proteolysis (Western Blot, THP-1 cells)
Type: cell-based
Settings: Western Blot, THP-1 cells, 24 h; read-out: Dmax
Structures can show the parent of a compound that is named as a salt.
READOUT: Dmax

Quick one: Dmax of Cn1c(=O)n(C2CCC(=O)NC2=O)c2cccc(N3CCC(N4CCN(C[C@H]5CC[C@H](n6cc(-n7cc(-c8cnn9ccc(N%10CCC(C)(O)CC%10)nc89)nn7)c(C(F)F)n6)CC5)CC4)CC3)c21 (stereo partly drawn) [Example 124] ?
60 to 70%

Follow-up item: Cn1c(=O)n(C2CCC(=O)NC2=O)c2cccc(N3CCC4(CCN(C[C@H]5CC[C@H](n6cc(-n7cc(-c8cnn9ccc(NCC%10CC%10)nc89)nn7)c(C(F)F)n6)CC5)CC4)CC3)c21 (stereo partly drawn) [Example 108]
> 70%

Follow-up item: Cn1c(=O)n(C2CCC(=O)NC2=O)c2cccc(N3CCC4(CCN(C[C@H]5CC[C@H](n6cc(-n7cc(-c8cnn9ccc(N%10CCC(C)(O)CC%10)nc89)nn7)c(C(F)F)n6)CC5)C4)CC3)c21 (stereo partly drawn) [Compound 238]
60 to 70%

Follow-up item: Cn1c(=O)n(C2CCC(=O)NC2=O)c2cccc(C3CCN(C[C@H]4CC[C@H](n5cc(-n6cc(-c7ccc8cc(C(N)=O)cnn78)nn6)c(C(F)F)n5)CC4)CC3)c21 (stereo partly drawn) [Example 84]
< 60%

Follow-up item: Cn1c(=O)n(C2CCC(=O)NC2=O)c2cccc(N3CCC4(CCN(C[C@H]5CC[C@H](n6cc(-n7cc(-c8cnn9ccc(N%10CCC(O)CC%10)nc89)nn7)c(C(F)F)n6)CC5)CC4)CC3)c21 (stereo partly drawn) [Example 136]
> 70%

Follow-up item: C[C@@H]1CN(C2CCN(c3cccc4c3n(C)c(=O)n4C3CCC(=O)NC3=O)CC2)CCN1C[C@H]1CC[C@H](n2cc(-n3cc(-c4cnn5ccc(N6CCC[C@H](O)C6)nc45)nn3)c(C(F)F)n2)CC1 (stereo partly drawn) [Example 292]
> 70%

Follow-up item: Cn1c(=O)n(C2CCC(=O)NC2=O)c2cccc(N3CCC4(CCN(C[C@H]5CC[C@H](n6cc(-n7cc(-c8cnn9ccc(N%10CCC[C@H](N)C%10)nc89)nn7)c(C(F)F)n6)CC5)C4)CC3)c21 (stereo partly drawn) [Example 119]
> 70%

Follow-up item: Cn1c(=O)n(C2CCC(=O)NC2=O)c2cccc(N[C@H]3CC[C@H](N(C)C[C@H]4CC[C@H](n5cc(-n6cc(-c7cnn8ccc(N9CCC[C@H](N)C9)nc78)nn6)c(C(F)F)n5)CC4)CC3)c21 (stereo partly drawn) [Example 118]
> 70%

Follow-up item: Cn1c(=O)n(C2CCC(=O)NC2=O)c2cccc(N3CCC4(CCN(C[C@H]5CC[C@H](n6cc(-n7cc(-c8cnn9ccc(NCC%10CC%10)nc89)nn7)c(C(F)F)n6)CC5)C4)CC3)c21 (stereo partly drawn) [Example 113]
60 to 70%

Follow-up item: Cn1c(=O)n(C2CCC(=O)NC2=O)c2cccc(N3CCC4(CCN(C[C@H]5CC[C@H](n6cc(-n7cc(-c8cnn9ccc(N%10CCNCC%10)nc89)nn7)c(C(F)F)n6)CC5)C4)CC3)c21 (stereo partly drawn) [Example 128, dihydrochloride]
> 70%

Follow-up item: Cn1c(=O)n(C2CCC(=O)NC2=O)c2cccc(N3CCC4(CCN(C[C@H]5CC[C@H](n6cc(-n7cc(-c8cnn9ccc(NCCC(C)(C)O)nc89)nn7)c(C(F)F)n6)CC5)CC4)CC3)c21 (stereo partly drawn) [Example 126]
> 70%

Follow-up item: Cn1c(=O)n(C2CCC(=O)NC2=O)c2cccc(N3CCC(N4CCN(C[C@H]5CC[C@H](n6cc(-n7cc(-c8cnn9ccc(N%10CCOCC%10)nc89)nn7)c(C(F)F)n6)CC5)CC4)CC3)c21 (stereo partly drawn) [Example 34]
60 to 70%

Follow-up item: Cn1c(=O)n(C2CCC(=O)NC2=O)c2cccc(N3CCC4(CCN(C[C@H]5CC[C@H](n6cc(-n7cc(-c8cnn9ccc(N%10CCOC[C@@H]%10CO)nc89)nn7)c(C(F)F)n6)CC5)CC4)CC3)c21 (stereo partly drawn) [Example 174]
> 70%

Follow-up item: Cn1c(=O)n(C2CCC(=O)NC2=O)c2cccc(N3CCC4(CCN(C[C@H]5CC[C@H](n6cc(-n7cc(-c8cnn9ccc(N[C@@H]%10CCCC[C@@H]%10O)nc89)nn7)c(C(F)F)n6)CC5)CC4)CC3)c21 (stereo partly drawn) [Example 151]
> 70%

Follow-up item: Cn1c(=O)n(C2CCC(=O)NC2=O)c2cccc(N3CCC4(CCN(C[C@H]5CC[C@H](n6cc(-n7cc(-c8cnn9ccc(N%10CCOCC%10)nc89)nn7)c(C(F)F)n6)CC5)C4)CC3)c21 (stereo partly drawn) [Example 39]
> 70%

Follow-up item: Cn1c(=O)n(C2CCC(=O)NC2=O)c2cccc(N3CCN(C4CCN(C[C@H]5CC[C@H](n6cc(-n7cc(-c8cnn9ccc(N%10CCC[C@@H](O)C%10)nc89)nn7)c(C(F)F)n6)CC5)CC4)CC3)c21 (stereo partly drawn) [Example 245]
> 70%

Follow-up item: Cn1c(=O)n(C2CCC(=O)NC2=O)c2cccc(N3CCC(N4CCN(C[C@H]5CC[C@H](n6cc(-n7cc(-c8cnn9ccc(N%10CCOC[C@@H]%10CO)nc89)nn7)c(C(F)F)n6)CC5)CC4)CC3)c21 (stereo partly drawn) [Example 173]
> 70%

Follow-up item: Cn1c(=O)n(C2CCC(=O)NC2=O)c2cccc(N3CCC4(CCN(C[C@H]5CC[C@H](n6cc(-n7cc(-c8cnn9ccc(N%10CCC[C@H](O)C%10)nc89)nn7)c(C(F)F)n6)CC5)C4)CC3)c21 (stereo partly drawn) [Example 145]
> 70%
